System: biotinyl-Phe-oxazolone
protocol.description: self-aminoacylation, catalytic enhancement (BFO) (fold over background); higher = more active; k-Seq, kA / k0A0; sequences stand for … in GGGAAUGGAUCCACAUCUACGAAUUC…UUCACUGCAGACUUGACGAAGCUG
Variants at the floor of the assay were thinned out.
Please mark T if the recorded self-aminoacylation is equal to or greater than 7, and F if it falls below.

residue.sequence	group.label
AAGUUUGCUGAUAGUCGCAGG [Fam3.1 aminoacylation ribozyme variant]	F
CCACUUCAAACAAUCGGUAUG [Fam1A.1 aminoacylation ribozyme variant]	T
AAGUUUCAUAAUAGUCGCAAG [Fam3.1 aminoacylation ribozyme variant]	F
AAGUUUGGUCAUAGUCGCAAG [Fam3.1 aminoacylation ribozyme variant]	F
AAGUCUGCUAAUAGUCGCAAA [Fam3.1 aminoacylation ribozyme variant]	F
AAGGAUGCUAAUAGUCGCAAG [Fam3.1 aminoacylation ribozyme variant]	T
AGGUUUGCUAAAAGUCGCAAG [Fam3.1 aminoacylation ribozyme variant]	T
AAGUUUUCUAAUAGUCGUAAG [Fam3.1 aminoacylation ribozyme variant]	F
CCAGACUUCAAGAAAUCGGUC [Fam1B.1 aminoacylation ribozyme variant]	T
AAGUUUGCUAAAAGUCGAAAG [Fam3.1 aminoacylation ribozyme variant]	F
AUUACCCUUGUCAUCGUGUGA [Fam2.1 aminoacylation ribozyme variant]	F
AAGUUUGCGAAUAGCCGCAAG [Fam3.1 aminoacylation ribozyme variant]	F
CUACUUCAAAUAAUCGGUCUG [Fam1A.1 aminoacylation ribozyme variant]	T
AAGUGUGCUAAAAGUCGCAAG [Fam3.1 aminoacylation ribozyme variant]	T
AAGUUGGCUAAUAGUCCCAAG [Fam3.1 aminoacylation ribozyme variant]	F
CCCCACUUCAAGCAAUCGGUA [Fam1B.1 aminoacylation ribozyme variant]	T
AUUCACGUAGGUCAUCGAGUG [Fam2.2 aminoacylation ribozyme variant]	F
CCCCACGUCAAGCAAUCGGUC [Fam1B.1 aminoacylation ribozyme variant]	F
AUUCACCUGGGUCAUCGUGUG [Fam2.2 aminoacylation ribozyme variant]	F
AAGUUUGCUAAUAGCCGCAAU [Fam3.1 aminoacylation ribozyme variant]	F
CCCCUCUUCAAGCAAUCGGUC [Fam1B.1 aminoacylation ribozyme variant]	T
AAGAUUGCUAACAGUCGCAAG [Fam3.1 aminoacylation ribozyme variant]	F
AAAGUUGCUAAUAGUCGCAAG [Fam3.1 aminoacylation ribozyme variant]	F
CUUCUUCAAACAAUCGGUUUG [Fam1A.1 aminoacylation ribozyme variant]	T
CCACUCUUCAAGCAAUCGGUC [Fam1B.1 aminoacylation ribozyme variant]	T
CUACUUCAAACAAUCAGUCGG [Fam1A.1 aminoacylation ribozyme variant]	T
AAGUUUGCGAAUAGGCGCAAG [Fam3.1 aminoacylation ribozyme variant]	T
AAGUUAGCUAAUAGUCGCUAG [Fam3.1 aminoacylation ribozyme variant]	F
CUGCUUCAAACAAUCGUUCUG [Fam1A.1 aminoacylation ribozyme variant]	F
AUGUUUGUUAAUAGUCGCAAG [Fam3.1 aminoacylation ribozyme variant]	F
CAGUUUGCUAAUAGUCCCAAG [Fam3.1 aminoacylation ribozyme variant]	F
AGUACCCUGGUCAUCGAGUGC [Fam2.1 aminoacylation ribozyme variant]	F
